Below, each of the sequences is paired with its reported protein stability index value.
- Assay protocol: protein stability index of a GFP-peptide fusion (GPS, HEK-293T) (PSI 1-6); higher = more stable;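 further: 24-mer peptide tiles fused after GFP, lentivirally expressed, FACS-sorted into six equal bins by GFP/DsRed ratio, decoded by Illumina sequencing, PSI is the read-weighted mean bin number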
- Cond: treatment: MLN4924 1 uM, 8 h; c terminus: a fixed tail appended

## Task What protein stability index value was documented for this sequence, QSHPHLVAEAFRALASAQCPQFGI [SPOPL] ?
## Result 2.16

## Task Would you kindly repeat that for TIQQEKLLAEKEEKLQKEQKELQD [SASS6] ?
## Result 5.54

## Task Would you kindly repeat that for IFDDNFIEERKQGLEQFINKVAGH [SNX3] ?
## Result 3.32

## Task Would you kindly repeat that for KGFGFVTMTNYDEAAMAIASLNGY [ELAVL3] ?
## Result 2.37

## Task Would you kindly repeat that for SVKLRGSSLFMDTEKSGKREFDVR [WEE1] ?
## Result 3.94

## Task Would you kindly repeat that for QDSKEMKQLLDSKIGFEIGIENEE [ZNF449] ?
## Result 5.37

## Task Would you kindly repeat that for MAVLKLTDQPPLVQAIFSGDPEEI [ANKRD44] ?
## Result 3.43

## Task Would you kindly repeat that for FSHTLVSLSLFGCTNIFYEEENPG [ZER1] ?
## Result 2.29

## Task Would you kindly repeat that for AAAAAAPAPPPPAGGATAWGDLLG [SNAP91] ?
## Result 4.42

## Task Would you kindly repeat that for IVSQKQMSDRRENDMSPSNNVVPI [RAB11A] ?
## Result 4.54

## Task Would you kindly repeat that for MEEEDPMPRQISRQSSVTESTLYP [TPRG1] ?
## Result 5.26

## Task Would you kindly repeat that for YYIRYRGAVYADSGNFERCIRLWK [FEM1A] ?
## Result 2.5

## Task Would you kindly repeat that for SNVKVETQSDEENGRACEMNGEEC [IKZF1] ?
## Result 5.25

## Task Would you kindly repeat that for IIPRTVIDGLDLLKKEHPGARDGI [SMG5] ?
## Result 3.39

## Task Would you kindly repeat that for TKKRKLGKNPDVDTSFLPDRDREE [FAM50A] ?
## Result 5.23

## Task Would you kindly repeat that for EPPTEAASREENQAGPEATTSDPQ [PALM] ?
## Result 5.49

## Task Would you kindly repeat that for IVAVLCYINLLNYMDRFTVAGVLP [SPNS1] ?
## Result 3.45

## Task Would you kindly repeat that for ETSYQQREERLRRENEELSARYLS [FBF1] ?
## Result 4.89

## Task Would you kindly repeat that for YKILLDVKTRLEQEIATYRRLLEG [KRT17] ?
## Result 2.39

## Task Would you kindly repeat that for EYQLNDSAAYYLNDLDRIAQPNYI [GNAI1] ?
## Result 2.79

## Task Would you kindly repeat that for EHGLHTKYIHRMMQIEFIKQGSMN [TRAF3IP2] ?
## Result 2.5

----------
- Assay protocol: protein stability index of a GFP-peptide fusion (GPS, HEK-293T) (PSI 1-6); higher = more stable
- Cond: treatment: DMSO; c terminus: a fixed tail appended
Below, each of the sequences is paired with its reported protein stability index value.
Please state the value as a number alone, without comment.

## Task What protein stability index value was documented for this sequence, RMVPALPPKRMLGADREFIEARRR [SNX8] ?
## Result 3.96

## Task Would you kindly repeat that for KTKEVQHNCQLHRISFCADDKTDK [GULP1] ?
## Result 4.66

## Task Would you kindly repeat that for AWDNPAYSGPPSPHGTLRVCTISS [PKD2L1] ?
## Result 2.93

## Task Would you kindly repeat that for KGFGFVTMTNYDEAAMAIASLNGY [ELAVL3] ?
## Result 2.34

## Task Would you kindly repeat that for MQQLYQVQLAQQQAALQKQQEVVV [ACBD3] ?
## Result 2.96

## Task Would you kindly repeat that for TIIFTAAREGRETLKCLSHHVADA [TOR1AIP2] ?
## Result 2.42

## Task Would you kindly repeat that for RQPVSFHRVKLTNSTLDPHGHLIL [TBX6] ?
## Result 2.27

## Task Would you kindly repeat that for LDLMPRLMTSKPAEVVKILQTMLR [INTS4] ?
## Result 2.23

## Task Would you kindly repeat that for RQRSSLAKINIVYQELNYRSVEEA [SCNN1D] ?
## Result 3.41

## Task Would you kindly repeat that for GGMMPPGPGIPPLMPGMPPGMPPP [ZNF207] ?
## Result 3.89

## Task Would you kindly repeat that for PILAPRIFGSNKWTTEQQQRFHEI [ARL6IP1] ?
## Result 3.07

## Task Would you kindly repeat that for MALRGPAGLGPGSRRPLDEAVAGA [DENND6A] ?
## Result 4.12

## Task Would you kindly repeat that for KPQEIVQVEIFSTNPDLYPVRRID [IQUB] ?
## Result 2.82

----------
Below, each of the sequences is paired with its reported protein stability index value.
- Assay protocol: protein stability index of a GFP-peptide fusion (GPS, HEK-293T) (PSI 1-6); higher = more stable
- Cond: treatment: MLN4924 1 uM, 8 h; c terminus: a fixed tail appended
Please state the value as a number alone, without comment.

EFLGNRSVILNHMAREHAFNIGLP [ZNF277]; 2.26
KKRRMGTYSLVPKKKTKVLKQRTV [EHMT1]; 3.82
FLFPIDISLVKREHDFLDRDAIEA [DLC1]; 2.72
WTRNPDDITQEEYGEFYKSLTNDW [HSP90AB1]; 3.82
STQLEMQLEKPKPVKPVTFSTGIK [MNAT1]; 4.43

## Task What protein stability index value was documented for this sequence, INVSKGINHLLKSPFSVHPKTGRI [PRIM1] ?
## Result 2.65

## Task Would you kindly repeat that for YSIDQEFLKEYFPIEVVTEGLLNT [NLN] ?
## Result 3.19

## Task Would you kindly repeat that for LLVLLLYAPVGFCLLVLRLFLGIH [AUP1] ?
## Result 2.11

## Task Would you kindly repeat that for TPVVTESTATSITLTWDSGNPEPV [PTPRD] ?
## Result 4.16

## Task Would you kindly repeat that for RFYYQALSVAPQIGMPFNQLGTLA [SMG5] ?
## Result 2.55

## Task Would you kindly repeat that for KQPPVTQSKTASDKSPSTVRDQGP [FBF1] ?
## Result 5.27

## Task Would you kindly repeat that for NNVVDISVPPTTDGQKPNKLQCCQ [RAB11B] ?
## Result 4.58

## Task Would you kindly repeat that for MPGDTDDAFPVHRVMMASASDYFK [KLHL13] ?
## Result 3.6

----------
- Assay protocol: protein stability index of a GFP-peptide fusion (GPS, HEK-293T) (PSI 1-6); higher = more stable
- Cond: treatment: MLN4924 1 uM, 8 h; c terminus: a fixed tail appended
Parameter threshold = 4. Response is Criterion met when protein stability index meets or exceeds it, else Criterion not met.

Study these solved cases before continuing.
SRGSRRRRRQRSEKKKAHYRQSSF [KCNA4]; Criterion met
TEELTVIKSSLKDEYQYSFWDLFR [SLC2A12]; Criterion not met
KKEMNKSDLNTNNLLFKPPVESHI [KMT2E]; Criterion met
LGNREALIQFLEQVHQGIKGMVLD [CPN1]; Criterion not met
RFRFGQDQLLLATGLNNGRIKIWD [WSB1]; Criterion not met

## Task Decide: protein stability index of QYALELLTVYAWERGSMKTHFNTA [OAS1] >= 4?
## Result Criterion not met

## Task Would you kindly repeat that for YIGSIMKGGAVAADGRIEPGDMLL [DVL3] ?
## Result Criterion not met

## Task Would you kindly repeat that for KPGRKTNQLQYMQNVVVKTLWKHQ [BRD3] ?
## Result Criterion not met

## Task Would you kindly repeat that for QFQEALEELAKKRFKDKSSEEAVR [TPPP] ?
## Result Criterion not met

## Task Would you kindly repeat that for PSRRSENRVVVSGLPPSGSWQDLK [SRSF1] ?
## Result Criterion met

## Task Would you kindly repeat that for YFTDTDELQLEAANETYENNFDNL [ATF6] ?
## Result Criterion met

## Task Would you kindly repeat that for AISDQLLGAGSDLKDFTLNETVNS [ADAMTSL2] ?
## Result Criterion met

----------
- Assay protocol: protein stability index of a GFP-peptide fusion (GPS, HEK-293T) (PSI 1-6); higher = more stable
- Cond: treatment: DMSO; c terminus: a fixed tail appended
Parameter threshold = 4. Response is t when protein stability index meets or exceeds it, else f.

## Task Decide: protein stability index of RLSKEWEDSKRWSKMDQLAKELTA [CHGA] >= 4?
## Result f

## Task Would you kindly repeat that for LYHSVKQGPISTKELADFIRERAT [FCHO1] ?
## Result f

## Task Would you kindly repeat that for CAPYDSRLLGSARPELGAALGIYG [IRX6] ?
## Result f

## Task Would you kindly repeat that for CQYLMATFVNVYIASFIRGPNPSK [CDS2] ?
## Result f

## Task Would you kindly repeat that for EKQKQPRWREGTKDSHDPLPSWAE [PBXIP1] ?
## Result f
